system: MCF7; assay: Cytotoxicity against human MCF7 cells after 48 hrs by sulforhodamine B assay; format: functional, cell-based; conditions: MCF7, 48 h
pIC50: −log10 of the molar value.
VALUE TYPE: pIC50

1) Cc1nn(-c2ccccc2)c(N2CCOCC2)c1/C=N/Nc1nc2ccccc2nc1O | 5.03
2) Cc1nn(-c2ccccc2)c(Cl)c1/C=N/Nc1nc2ccccc2[nH]c1=O | 4.60
3) CC(=O)N1CCN(c2c(/C=N/Nc3nc4ccccc4nc3O)c(C)nn2-c2ccccc2)CC1 | 4.74
4) Cc1nn(-c2ccccc2)c(N2CCN(S(=O)(=O)c3ccccc3[N+](=O)[O-])CC2)c1/C=N/Nc1nc2ccccc2nc1O | 4.84
5) Cc1nn(-c2ccccc2)c(SCC(=O)O)c1/C=N/Nc1nc2ccccc2nc1O | 4.47
6) Cc1nn(-c2ccccc2)c(N(C)C)c1/C=N/Nc1nc2ccccc2nc1O | 4.74
7) Cc1nn(-c2ccccc2)c(SCCO)c1/C=N/Nc1nc2ccccc2nc1O | 4.95
8) Cc1nn(-c2ccccc2)c(N2CCN(S(=O)(=O)c3ccccc3)CC2)c1/C=N/Nc1nc2ccccc2nc1O | 4.58
9) Cc1nn(-c2ccc([N+](=O)[O-])cc2)c(Cl)c1/C=N/Nc1nc2ccccc2[nH]c1=O | 4.68
